Test system: B. subtilis X12
Experiment: Bioautography of thin layer chromatography plate
Type: cell-based
Conditions: TLC plate of the reaction mixture against B. subtilis X12
OUTCOME MEASURE: zone of inhibition (bioautography)

>>> result("CCCCNC1CC(N)C(OC2OC3C(CC2N)OC(OC2OC(CO)C(N)C(O)C2O)C(NC)C3O)C(O)C1O (stereo not shown)")
"good zone of inhibition"
>>> result("C=CCNC1CC(N)C(OC2OC3C(CC2N)OC(OC2OC(CO)C(N)C(O)C2O)C(NC)C3O)C(O)C1O (stereo not shown)")
"good zone of inhibition"
>>> result("CCCCNC1CC(N)C(O)C(O)C1OC1OC2C(CC1N)OC(OC1OC(CO)C(N)C(O)C1O)C(NC)C2O (stereo not shown)")
"not"

Value source: patent EP0048614B1
